Each entry below carries its reported growth.
- Test system: IGROV1 ovarian
- protocol-text: NCI-60 one-dose screen, 48 h (100 = growth as untreated, 0 = no growth, -100 = all killed)
- reported-conditions: 10 µM unless noted
- Protocol: Growth inhibition of the IGROV1 human tumor cell line is measured as a screen for anti-cancer activity. Cells are grown in 96 well plates and exposed to the test compound for 48 hours. Compounds are tested at a single concentration, which is 10^-5 M for most compounds. The reported endpoint is percent growth (GI% or GIPRCNT), where numbers from 0 - 100% represent growth inhibition, and numbers from -100% - 0 represent cell death. For example, a value of 40 represents 60% growth inhibition. […]
About 83,000 compounds went through this panel and 20% of them were active in at least one assay; those are over-represented in the sample as a whole.
API: value field is a number in %; no unit string.

Solved cases below.
| smiles-data | property-measured | test-value |
| --- | --- | --- |
| CCN(CC)Cc1cccc(C(=O)OC)c1 | growth | 102 |
| NC(=O)c1ccc[n+](Cc2ccc(Cl)cc2Cl)c1 | growth | 105 |
| COc1ccc(N=Nc2ccc(O)c(=O)cc2)cc1 | growth | 15.1 |
| O=C1CCc2c(sc3[nH]c(=S)n(-c4ccc(OC(F)(F)F)cc4)c(=O)c23)C1 | growth | 55.6 |
| Cc1cc(NCCCCNc2ccnc3cc(Cl)ccc23)nc(Nc2ccc(C(=O)N3CCCCC3)cc2)n1 | growth | 29.8 |
| O=C(NCCNc1cc(-c2cn(-c3ccccc3)nc2-c2cccc(O)c2)ccn1)Nc1ccccc1 | growth | 67 |
| COc1ccc(-c2nc(SC(C)C)nc(NNC(N)=S)c2C#N)cc1 | growth | 52.6 |

Moving on to another molecule below.
IN: Dear colleague, please send me the reported growth for "C=C1C(=O)O[C@H]2[C@H]1CC/C(CNC(=O)/C=C/c1ccc(Cl)cc1Cl)=C\CC[C@@]1(C)O[C@@H]21" when you can.
OUT: -32.7

---

- Test system: OVCAR-5 ovarian
- protocol-text: NCI-60 one-dose screen, 48 h
- reported-conditions: 10 µM unless noted
The panel holds about 83,000 compounds, 20% with a hit somewhere; the sample as a whole holds those more often. The source made the active and inactive calls. Rule for the calls: active = growth percent below 10; inactive = the rest.
In this exercise, the only acceptable responses are active, inactive

| compound | qualitative-label |
| --- | --- |
| O=C(Nc1ccc(Nc2ccncc2)cc1)c1ccc(C(=O)Nc2ccc(Nc3ccncc3)cc2)cc1 | inactive |
| O=[N+]([O-])c1ccc(Sc2cccc[n+]2[O-])c2nonc12 | inactive |

Now consider the entry below.
IN: Query: recorded result category for N#C/C(=C/C=C/c1cccc(Cl)c1)S(=O)c1ccccc1 (configuration not stated) in this test
OUT: active

---

# maps each entry to its growth
- System: CAKI-1 renal
- protocol-text: NCI-60 one-dose screen, 48 h (100 = growth as untreated, 0 = no growth, -100 = all killed)
- reported-conditions: 10 µM unless noted
About 83,000 compounds went through this panel and 20% of them were active in at least one assay; those are over-represented in the sample as a whole.
Give just the numeric value; % need not be written.

| molecule | units-label | growth |
| --- | --- | --- |
| Cc1cc(NCc2cc(Nc3ccnc4cc(Cl)ccc34)ccc2F)nc(N2CCN(c3ccccc3)CC2)n1 | % | 72.3 |
| CC(=O)n1c(-c2ccc(Cl)cc2)nc2c(c1=O)C(c1ccc(Cl)cc1)c1sc3c(Cl)cccc3c1O2 (stereo not drawn) | % | 7.82 |

Now for a further molecule.
IN: Report growth, nothing else, for this molecule: "O=c1c2cc(F)ccc2sc2c(NCCCN3CCCC3)nc3ccccc3c12"
OUT: 30.4

Cited source: PubChem BioAssay (NCI)
